Target: human CB1 receptors (Homo sapiens (Human))
Assay: cAMP assay (functional), CHO cells expressing human CB1 receptors
Format: cell-based
Protocol: CHO cells expressing human CB1 or CB2 receptors are seeded 17-24 hours prior to the experiment 50.000 cells per well in a black 96 well plate with flat clear bottom (Corning Costar #3904) in DMEM (Invitrogen No. 31331), 1×HT supplement, with 10% fetal calf serum and incubated at 5% CO2 and 37° C. in a humidified incubator. […] The time-resolved energy transfer is measured by a TRF reader (Evotec Technologies GmbH), equipped with a ND:YAG laser as excitation source. […]
measurement-type: EC50

Qu. Which value of EC50 has been reported for NC(=O)C1CC2(CC2)CN1C(=O)c1cnc(N2CC(F)(F)C2)c(OCC2CC2)n1 (racemic) in the records?
Ans. > 10 µM

###

Molecular target: human CB2 receptors (Homo sapiens (Human), UniProt P34972)
Sequence (P34972 whole entry): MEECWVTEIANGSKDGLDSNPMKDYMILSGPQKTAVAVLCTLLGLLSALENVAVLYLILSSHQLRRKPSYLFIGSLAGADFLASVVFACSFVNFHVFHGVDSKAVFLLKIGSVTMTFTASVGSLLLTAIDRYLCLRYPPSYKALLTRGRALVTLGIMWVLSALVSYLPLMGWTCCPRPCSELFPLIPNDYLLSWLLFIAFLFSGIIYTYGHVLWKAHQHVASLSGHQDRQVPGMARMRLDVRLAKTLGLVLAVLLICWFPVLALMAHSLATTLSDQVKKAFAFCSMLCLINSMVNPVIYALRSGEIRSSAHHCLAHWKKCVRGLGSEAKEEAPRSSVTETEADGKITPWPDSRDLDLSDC
Experiment: cAMP assay (functional), CHO cells expressing human CB2 receptors
Format: cell-based
measurement-type: EC50 (nM)
Use nM as the unit, but write only the number.

Qu. Which value of EC50 has been reported for NC(=O)C1CC2(CC2)CN1C(=O)c1cnc(N2CC(F)(F)C2)c(OCC2CC2)n1 (racemic) [Example 40] in the records?
Ans. 39

###

Target: UniProt:P34972
Assay: cAMP assay (functional), CHO cells expressing human CB2 receptors
Format: cell-based
Settings: functional cAMP assay, CHO cells expressing human CB2; read-out: human CB2 EC50
Description: CHO cells expressing human CB1 or CB2 receptors are seeded 17-24 hours prior to the experiment 50.000 cells per well in a black 96 well plate with flat clear bottom (Corning Costar #3904) in DMEM (Invitrogen No. 31331), 1×HT supplement, with 10% fetal calf serum and incubated at 5% CO2 and 37° C. in a humidified incubator. […] The time-resolved energy transfer is measured by a TRF reader (Evotec Technologies GmbH), equipped with a ND:YAG laser as excitation source. […]
measurement-type: EC50 (nM)
Use nM as the unit, but write only the number.

Qu. Which value of EC50 has been reported for CC1(C)CC(C(N)=O)N(C(=O)c2cnc(C3CC3)c(OCC3CC3)n2)C1 (single isomer, unassigned; (-)) [Example 39] in the records?
Ans. 10.3

Qu. Which value of EC50 has been reported for CC1(C)CCCN1C(=O)c1cnc(N2CC(F)(F)C2)c(OCC2CC2)n1 in the records?
Ans. 4.3

Qu. Which value of EC50 has been reported for O=C(c1cnc(N2CC(F)(F)C2)c(OCC2CC2)n1)N1CCC2(COC2)C1 in the records?
Ans. 204

Qu. Which value of EC50 has been reported for O=C(c1cnc(N2CC(F)(F)C2)c(OCC2CC2)n1)N1CCN(CCO)CC1 in the records?
Ans. 316

Qu. Which value of EC50 has been reported for CCOC(=O)CN(C(=O)c1cnc(N2CC(F)(F)C2)c(OCC2CC2)n1)C(C)(C)C in the records?
Ans. 6.8

###

Target: human CB1 receptors (Homo sapiens (Human), UniProt P21554)
Sequence (P21554 whole entry): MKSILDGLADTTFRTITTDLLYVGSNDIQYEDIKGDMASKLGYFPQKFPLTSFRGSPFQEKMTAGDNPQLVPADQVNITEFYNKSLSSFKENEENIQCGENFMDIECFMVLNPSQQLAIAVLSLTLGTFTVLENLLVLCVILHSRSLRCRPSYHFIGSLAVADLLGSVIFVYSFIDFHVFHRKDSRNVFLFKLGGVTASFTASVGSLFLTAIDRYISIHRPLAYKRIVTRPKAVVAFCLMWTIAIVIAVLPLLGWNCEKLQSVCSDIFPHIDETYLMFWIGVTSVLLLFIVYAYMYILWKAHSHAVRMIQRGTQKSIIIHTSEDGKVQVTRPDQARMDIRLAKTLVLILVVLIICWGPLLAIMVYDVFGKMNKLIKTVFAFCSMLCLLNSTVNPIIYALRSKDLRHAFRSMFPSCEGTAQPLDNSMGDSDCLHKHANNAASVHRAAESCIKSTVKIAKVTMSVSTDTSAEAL
Assay: cAMP assay (functional), CHO cells expressing human CB1 receptors
Type: cell-based
Details: functional cAMP assay, CHO cells expressing human CB1; read-out: human CB1 EC50
pEC50: −log10 of the molar value.
measurement-type: pEC50

Qu. GET /values?readout=pEC50&system=human CB1 receptors (Homo sapiens (Human), UniProt P21554)&item= CC(=O)OC1(C)CCN(C(=O)c2cnc(C3CC3)c(OCC3CC3)n2)C1 (stereo not drawn)
Ans. < 5.00

Qu. GET /values?readout=pEC50&system=human CB1 receptors (Homo sapiens (Human), UniProt P21554)&item= C[C@H]1CCCN1C(=O)c1cnc(N2CC(F)(F)C2)c(OCC2CC2)n1
Ans. < 5.00

Qu. GET /values?readout=pEC50&system=human CB1 receptors (Homo sapiens (Human), UniProt P21554)&item= CC1(C)COCCN1C(=O)c1cnc(N2CC(F)(F)C2)c(OCC2CC2)n1
Ans. < 5.00

Qu. GET /values?readout=pEC50&system=human CB1 receptors (Homo sapiens (Human), UniProt P21554)&item= CC1(C)CN(C(=O)c2cnc(N3CC(F)(F)C3)c(OCC3CC3)n2)CCO1
Ans. < 5.00

Qu. GET /values?readout=pEC50&system=human CB1 receptors (Homo sapiens (Human), UniProt P21554)&item= NC(=O)C1CSCCN1C(=O)c1cnc(N2CC(F)(F)C2)c(OCC2CC2)n1 (single isomer, unassigned; (-))
Ans. < 5.00

Qu. GET /values?readout=pEC50&system=human CB1 receptors (Homo sapiens (Human), UniProt P21554)&item= CN(C)C(=S)[C@H]1CCCN1C(=O)c1cnc(N2CC(F)(F)C2)c(OCC2CC2)n1
Ans. < 5.00

Qu. GET /values?readout=pEC50&system=human CB1 receptors (Homo sapiens (Human), UniProt P21554)&item= CC1(C)CC(C(N)=O)N(C(=O)c2cnc(C3CC3)c(OCC3CC3)n2)C1 (stereo not drawn) [Example 34]
Ans. < 5.00

Qu. GET /values?readout=pEC50&system=human CB1 receptors (Homo sapiens (Human), UniProt P21554)&item= O=C(c1cnc(C2CC2)c(OCC2CC2)n1)N1CC(F)(F)C(F)(F)C1
Ans. < 5.00

Qu. GET /values?readout=pEC50&system=human CB1 receptors (Homo sapiens (Human), UniProt P21554)&item= COCC(C)(C)N(C)C(=O)c1cnc(N2CC(F)(F)C2)c(OCC2CC2)n1
Ans. < 5.00
